# tested_system: T1, recombinant antigen of the extracellular region of CD47 (Sino Biological, Cat: 12283-H08H) (human, UniProt Q08722 19-139)
# T1 construct: extracellular domain; also called recombinant CD47 extracellular region; CD47 recombinant protein
# T1 sequence (Q08722 19-139 limits assumed): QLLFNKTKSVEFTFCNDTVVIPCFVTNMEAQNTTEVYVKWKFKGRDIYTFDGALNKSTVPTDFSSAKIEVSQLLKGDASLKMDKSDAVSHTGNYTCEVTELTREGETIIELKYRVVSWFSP
# assay_method_text: Fortebio BLI, recombinant CD47
property: kon
Answer shape: numeric part, then the unit.

### Prompt What value of kon has been recorded for this entry: hz140-Hm13/hz182-Lm5 (antibody, V domains shown) VH: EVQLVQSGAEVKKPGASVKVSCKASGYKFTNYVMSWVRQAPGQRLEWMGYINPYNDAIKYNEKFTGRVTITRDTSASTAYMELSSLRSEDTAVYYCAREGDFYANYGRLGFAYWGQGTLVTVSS VL: DIQMTQSPSSLSASVGDRVTITCRASQDISNYLNWYQQKPGKAPKLLLYYTSRLHSGVPSRFSGSGSGTDYTLTISSLQPEDFATYFCQQGDGRPYTFGGGTKVEIKR
### Response 79900 M⁻¹ s⁻¹

### Prompt Sample hz140-Hm13/hz182-L (antibody, V domains shown) VH: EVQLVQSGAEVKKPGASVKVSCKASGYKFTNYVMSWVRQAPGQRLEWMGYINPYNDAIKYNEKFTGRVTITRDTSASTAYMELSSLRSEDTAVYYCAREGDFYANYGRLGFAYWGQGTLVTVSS VL: DIQMTQSPSSLSASVGDRVTITCRASQDISNYLNWYQQKPGKAPKLLLYYTSRLHSGVPSRFSGSGSGTDYTLTISSLQPEDFATYFCQQGAGRPYTFGGGTKVEIK — what was its kon?
### Response 125000 M⁻¹ s⁻¹
